# System: NUGC4 (P53 WT)
# Assay Details: Cell viability assay (CellTiter-Glo, 6 days), NUGC4
# Type: cell-based
# Assay Context: Homo sapiens, NUGC-4, 144 h; cell viability, 6 days, CellTiter-Glo; read-out: NUGC4 (P53 WT) IC50

[
  {
    "Compound": "COc1cc(P(=O)(C2CC2)C2CC2)ccc1NCC#Cc1sc2c(N[C@@H]3CCN(C)C[C@@H]3F)cccc2c1CC(F)(F)F [Example 141]",
    "Target Under Test": "NUGC4 (P53 WT)",
    "Unit Symbol": "µM",
    "IC50": 9.06
  },
  {
    "Compound": "CN1CC[C@@H](Nc2cccc3c(CC(F)(F)F)c(C#CCNc4ccc(P(C)(C)=O)cc4-c4cnco4)sc23)[C@@H](F)C1 [Example 214]",
    "Target Under Test": "NUGC4 (P53 WT)",
    "Unit Symbol": "µM",
    "IC50": 13.9
  },
  {
    "Compound": "COc1cc(P(C)(C)=O)ccc1NCC#Cc1sc2c(N[C@@H]3CCN(C4CC4)C[C@@H]3F)cccc2c1CC(F)(F)F (racemic) [Example 74]",
    "Target Under Test": "NUGC4 (P53 WT)",
    "Unit Symbol": "µM",
    "IC50": 2.73
  },
  {
    "Compound": "CN1CC[C@@H](Nc2cccc3c(CC(F)(F)F)c(C#CCNc4ccc(P(C)(C)=O)cc4C(N)=O)sc23)[C@@H](F)C1 [Example 199]",
    "Target Under Test": "NUGC4 (P53 WT)",
    "Unit Symbol": "µM",
    "IC50": 49
  },
  {
    "Compound": "CN1CC[C@@H](Nc2cccc3c(CC(F)(F)F)c(C#CCNc4cc(F)c(P(C)(C)=O)cc4F)sc23)[C@@H](F)C1 (racemic) [Example 91]",
    "Target Under Test": "NUGC4 (P53 WT)",
    "Unit Symbol": "µM",
    "IC50": 9.41
  },
  {
    "Compound": "CN1CC[C@@H](Nc2cccc3c(CC(F)(F)F)c(C#CCNc4ccc(P(C)(C)=O)cc4Cl)sc23)[C@@H](F)C1 (racemic) [Example 83]",
    "Target Under Test": "NUGC4 (P53 WT)",
    "Unit Symbol": "µM",
    "IC50": 7.96
  }
]

* * *

# Tested on: NUGC4 (P53 WT)
# Assay Details: Cell viability assay (CellTiter-Glo, 6 days), NUGC4
# Type: cell-based
# Assay Context: Homo sapiens, NUGC-4, 144 h; cell viability, 6 days, CellTiter-Glo; read-out: NUGC4 (P53 WT) IC50
Measured IC50 values are reported for all entries that follow.
Readout: IC50

[
  {
    "Molecule": "COc1cc(P(C)(C)=O)ccc1NCC#Cc1sc2c(NC3CCN(C)CC34CC4)cccc2c1CC(F)(F)F (stereo not drawn) [Example 89]",
    "Data Value": "4.54 µM"
  },
  {
    "Molecule": "COc1cc(P(C)(C)=O)ccc1NCC#Cc1sc2c(NC3[C@@H]4COC[C@H]3CN(C)C4)cccc2c1CC(F)(F)F (single isomer, unassigned) [Example 197]",
    "Data Value": "11.5 µM"
  },
  {
    "Molecule": "COc1cc(P(C)(C)=O)ccc1NCC#Cc1sc2c(NC3CCN(C)CC3F)cccc2c1C(O)C(F)(F)F (racemic) [Example 188]",
    "Data Value": "40.6 µM"
  }
]
